Kindly state pEC50 for each of the entries shown.
- Target Or Test System: UniProt Q16552
- Sequence (Q16552 24-155): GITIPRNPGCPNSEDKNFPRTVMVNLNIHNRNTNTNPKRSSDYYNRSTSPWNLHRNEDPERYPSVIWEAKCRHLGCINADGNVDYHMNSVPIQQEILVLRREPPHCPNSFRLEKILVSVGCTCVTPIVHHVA
- Assay Info: IL-8 release assay in human epithelial keratinocytes adult (HEKa)
- Run Parameters: HEKa cells, 3 ng/mL HEK-human IL-17AA + 10 ng/mL human TNFalpha; read-out: Rel EC50 IL-8 release assay
pEC50: −log10 of the molar value.

Cc1n[nH]c(C)c1-c1ccc(NC(=O)C(NC(=O)c2ccnn2C)C2CCCc3cc(F)ccc32)cc1 (single isomer, unassigned) [Example 260]: > 7.00
Cc1n[nH]c(C)c1-c1ccc(NC(=O)[C@@H](NC(=O)c2ccnn2C(C)C)[C@H]2CCCC(F)(F)C2)cc1 [Example 23]: > 7.00
Cn1cncc1-c1ccc(NC(=O)[C@@H](NC(=O)OC(C)(C)C)C2CCC2)cc1 [Example 92]: < 6.00
Cn1cncc1-c1ccc(NC(=O)C(NC(=O)c2ccnn2C)C(c2cccc(Cl)c2)c2cccc(Cl)c2)cc1 (single isomer, unassigned) [Example 373B]: < 6.00
Cc1n[nH]c(C)c1-c1ccc(NC(=O)[C@@H](NC(=O)c2ccnn2C)C2CCCC(C)(C)C2)cc1 (single isomer, unassigned) [Example 239]: > 7.00
Cc1ncn(C)c1-c1ccc(NC(=O)[C@@H](NC(=O)OC2CC2)C(c2ccccc2)c2ccccc2)cc1 [Example 423]: 6.00 to 7.00
Cc1n[nH]c(C)c1-c1ccc(NC(=O)[C@@H](NC(=O)c2ccnn2C)[C@H]2CCCc3ccc(C#N)cc32)cc1 [Example 82]: 6.00 to 7.00
Cc1n[nH]c(C)c1-c1ccc(NC(=O)[C@@H](NC(=O)N(C)C(C)C)C2CCCCC2)cc1 [Example 469]: 6.00 to 7.00
CCC(F)(F)C(=O)N[C@H](C(=O)Nc1ccc(-c2c(C)n[nH]c2C)cc1)C1CCCCC1 [Example 56]: 6.00 to 7.00
Cc1n[nH]c(C)c1-c1ccc(NC(=O)[C@@H](NC(=O)c2cnnn2C)C(C2CCC2)C2CCC2)cc1 [Example 272]: > 7.00

Go through the list and state pEC50 for each entry.
1. Cc1n[nH]c(C)c1-c1ccc(NC(=O)[C@@H](NC(=O)c2ccnn2CC(F)F)C(C2CC2)C2CC2)cc1 [Example 115]
2. Cc1n[nH]c(C)c1-c1ccc(NC(=O)[C@@H](NC(=O)c2ccnn2C(C)CO)C2C3CC4CC(C3)CC2C4)cc1 (single isomer, unassigned) [Example 187]
3. Cc1n[nH]c(C)c1-c1ccc(NC(=O)C(NC(=O)c2ccnn2C)C2CCC(C)(C)C2)cc1 (centres unmarked) [Example 266]
4. Cc1n[nH]c(C)c1-c1ccc(NC(=O)[C@@H](NC(=O)c2ccnn2C(C)C)C2CCCCC2)cc1 [Example 10]

Completion:
1. > 7.00
2. > 7.00
3. 6.00 to 7.00
4. > 7.00

----------
- Target Or Test System: human IL-17AA (Homo sapiens, UniProt Q16552)
- Assay Info: IL-8 release assay in human epithelial keratinocytes adult (HEKa)
- Run Parameters: HEKa cells, 3 ng/mL HEK-human IL-17AA + 10 ng/mL human TNFalpha; read-out: Rel EC50 IL-8 release assay
pEC50: −log10 of the molar value.
Reported Property: pEC50

Go through the list and state pEC50 for each entry.
1. Cc1n[nH]c(C)c1-c1ccc(NC(=O)[C@@H](NC(=O)c2ccnn2C2CC2)C(C2CC2)C2CC2)cc1 [Example 116]
2. Cc1n[nH]c(C)c1-c1ccc(NC(=O)[C@@H](NC(=O)c2ccnn2C)[C@@H]2CCc3ccc(Cl)cc32)cc1 [Example 77]

Completion:
["> 7.00", "6.00 to 7.00"]

Go through the list and state pEC50 for each entry.
1. Cc1cnn(C)c1-c1ccc(NC(=O)[C@@H](NC(=O)c2ccnn2C(C)C)C(C2CC2)C2CC2)cc1O [Example 365]
2. CCC(CC)[C@H](NC(=O)OC(C)(C)C)C(=O)Nc1ccc(-c2c(C)ncn2C)cc1 [Example 89]
3. Cc1n[nH]c(C)c1-c1ccc(NC(=O)C(NC(=O)c2ccnn2C)[C@H]2CCCc3c(F)cc(F)cc32)cc1 (single isomer, unassigned) [Example 255]
4. Cc1n[nH]c(C)c1-c1ccc(NC(=O)[C@@H](NC(=O)c2cnnn2-c2ccccc2)C2CCCCCC2)cc1 [Example 63]
5. CC[C@H](C)[C@H](NC(=O)c1ccnn1CC)C(=O)Nc1ccc(-c2c(C)n[nH]c2C)cc1 [Example 109]

Completion:
> 7.00
< 6.00
> 7.00
> 7.00
6.00 to 7.00

Go through the list and state pEC50 for each entry.
1. Cc1n[nH]c(C)c1-c1ccc(NC(=O)[C@@H](NC(=O)c2ccnn2C2CCOC2)C(C2CC2)C2CC2)cc1 (stereo partly drawn) [Example 219]
2. CC(C)c1n[nH]c(C(C)C)c1-c1ccc(NC(=O)[C@@H](NC(=O)c2ccnn2C(C)C)C(C2CC2)C2CC2)cc1 [Example 387]

Completion:
["> 7.00", "> 7.00"]

Go through the list and state pEC50 for each entry.
1. Cc1n[nH]c(C)c1-c1ccc(NC(=O)[C@@H](NC(=O)c2ccnn2CC(F)F)C2CCCCC2)cc1 [Example 106]
2. Cn1cnnc1-c1ccc(NC(=O)[C@@H](NC(=O)c2ccnn2C)C2CCCCC2)cc1 [Example 352]
3. Cc1n[nH]c(N(C)C)c1-c1ccc(NC(=O)[C@@H](NC(=O)c2ccnn2C)C2CCCCC2)cc1 [Example 453]
4. CCC(C)n1nccc1C(=O)N[C@H](C(=O)Nc1ccc(-c2c(C)n[nH]c2C)cc1)C(C1CC1)C1CC1 (stereo partly drawn) [Example 128]

Completion:
1. > 7.00
2. < 6.00
3. 6.00 to 7.00
4. > 7.00

----------
- Target Or Test System: human IL-17AA (Homo sapiens)
- Assay Info: IL-8 release assay in human epithelial keratinocytes adult (HEKa)
- Run Parameters: HEKa cells, 3 ng/mL HEK-human IL-17AA + 10 ng/mL human TNFalpha; read-out: Rel EC50 IL-8 release assay
Kindly state EC50 for each of the entries shown.

In the examples that follow, each entry is paired with its recorded EC50.
Cc1n[nH]c(C)c1-c1ccc(NC(=O)C(NC(=O)c2ccnn2C)C(c2ccccc2)C2CC2)cc1 (single isomer, unassigned) [Example 303]: 100 to 1000 nM
Cc1n[nH]c(C)c1-c1ccc(NC(=O)C(NC(=O)c2ccnn2C)C2CCCCCCC2)cc1 (single isomer, unassigned) [Example 156]: < 100 nM
Cc1n[nH]c(C)c1-c1ccc(NC(=O)[C@@H](NC(=O)c2ccnn2C(C)C)[C@H]2CC[C@H](C)CC2)cc1O: < 100 nM
Cc1n[nH]c(C)c1-c1ccc(NC(=O)[C@@H](NC(=O)c2ccnn2C)[C@@H]2CCCC3(CC3)C2)cc1: 100 to 1000 nM
Cn1cncc1-c1ccc(NC(=O)[C@H](Cc2cc(Br)ccc2Cl)NC(=O)c2ccnn2C)cc1: 100 to 1000 nM

Go through the list and state EC50 for each entry.
1. Cc1n[nH]c(C)c1-c1ccc(NC(=O)[C@@H](NC(=O)c2ccnn2C(C)C)[C@H]2CCOc3c(F)cccc32)cc1
2. Cc1n[nH]c(C)c1-c1ccc(NC(=O)[C@@H](NC(=O)c2ccnn2C(C)C#N)C(C2CC2)C2CC2)cc1 (some centres unmarked)
3. Cc1n[nH]c(C)c1-c1ccc(NC(=O)C(NC(=O)c2ccnn2C)C(C)c2ccccc2)cc1 (single isomer, unassigned) [Example 236]
4. CCCn1nccc1C(=O)N[C@H](C(=O)Nc1ccc(-c2c(C3CC3)n[nH]c2C)cc1)C(C1CC1)C1CC1
5. Cc1n[nH]c(C)c1-c1ccc(NC(=O)[C@@H](NC(=O)c2ccnn2C)C(C)C(C)C)cc1 (some centres unmarked)
6. Cc1n[nH]c(C)c1-c1ccc(NC(=O)C(NC(=O)c2ccnn2C)C(c2ccccc2)C2CC2)cc1 (single isomer, unassigned) [Example 304]
7. CC(C)n1nccc1C(=O)N[C@H](C(=O)Nc1ccc(-c2c(CO)ncn2C)cc1)C(C1CC1)C1CC1

Completion:
1. < 100 nM
2. > 1000 nM
3. > 1000 nM
4. < 100 nM
5. 100 to 1000 nM
6. > 1000 nM
7. 100 to 1000 nM

Go through the list and state EC50 for each entry.
1. Cc1n[nH]c(C)c1-c1ccc(NC(=O)[C@@H](NC(=O)c2ccnn2C(C)CO)[C@@H]2CC(C)(C)CCC2(F)F)cc1 (single isomer, unassigned) [Example 211]
2. CCn1nccc1C(=O)N[C@@H](CC1CCCCC1)C(=O)Nc1ccc(-c2c(C)n[nH]c2C)cc1
3. Cc1n[nH]c(C)c1-c1ccc(NC(=O)[C@@H](NC(=O)N2CCOCC2)C2CCCCC2)cc1
4. CCc1n[nH]c(CC)c1-c1ccc(NC(=O)[C@@H](NC(=O)c2ccnn2C(C)C)C(C2CC2)C2CC2)cc1O
5. CCn1nccc1C(=O)NC(C(=O)Nc1ccc(-c2c(C)n[nH]c2C)cc1)C1CCCCCCC1 (single isomer, unassigned) [Example 154]

Completion:
< 100 nM
100 to 1000 nM
> 1000 nM
< 100 nM
100 to 1000 nM

Go through the list and state EC50 for each entry.
1. CC(C)n1nccc1C(=O)N[C@H](C(=O)Nc1ccc(-c2c(C3(O)CC3)cnn2C)cc1)C(C1CC1)C1CC1
2. Cc1n[nH]c(C)c1-c1ccc(NC(=O)[C@@H](NC(=O)N(C)CCCO)C2CCCCC2)cc1
3. Cc1n[nH]c(C)c1-c1ccc(NC(=O)[C@@H](NC(=O)Cn2ccnc2C)C2CCCCC2)cc1
4. Cc1n[nH]c(C)c1-c1ccc(NC(=O)[C@@H](NC(=O)N2CCCCC2CCO)C2CCCCC2)cc1 (single isomer, unassigned) [Example 471]
5. Cc1n[nH]c(C)c1-c1ccc(NC(=O)[C@@H](NC(=O)c2ccnn2CCCO)[C@@H]2CC(C)(C)CCC2(F)F)cc1

Completion:
["100 to 1000 nM", "> 1000 nM", "> 1000 nM", "> 1000 nM", "< 100 nM"]

The reported measurements were obtained from patent US11377425B1.
